- systemUnderTest: CBP-KIX MLLmut (I660A and L664A) (UniProt P45481 586-672, I660A | L664A)
- Sequence (P45481 586-672 I660A/L664A): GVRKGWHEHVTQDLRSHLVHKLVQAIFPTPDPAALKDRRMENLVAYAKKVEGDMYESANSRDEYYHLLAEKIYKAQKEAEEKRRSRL
- experimentalProtocol: ITC
quantityMeasured: Kd (nM)
Answer with a number only, understood to be in nM.

Kd for DLDLDMYMENLECDMDNIISDLMDEGEGLDFNFEPDP (domain or fragment, UniProt P98177 469-505, looked up) [FOXO4-CR3 (conserved region 3, transactivation domain of FOXO4, aa 469–505)] ?
2760
